All figures here come from ChEMBL document CHEMBL3407401.

Below, each entry is listed with its recorded inhibition at 25 µg/mL.
system: Daoy; assay: Cytotoxicity against human DaOY cells assessed as inhibition of cell survival at 25 ug/ml after 24 hrs by MTT assay; format: functional
Answer in %, number only, no unit symbol.

compound_smiles=COc1ccc2c(c1)/C(=N/NC(=O)c1ccccc1NC(=O)c1ccc(C)cc1)C(=O)N2 assay_system=Daoy value_observed=77.2

## Input # inhibition at 25 µg/mL lookup, item O=C1Nc2ccc(Cl)cc2/C1=N/n1c(-c2cccs2)nc2ccccc2c1=O
## Output 69.3

## Input # inhibition at 25 µg/mL lookup, item O=C1Nc2ccc([N+](=O)[O-])cc2/C1=N/NC(=O)c1ccccc1NC(=O)c1ccc([N+](=O)[O-])cc1
## Output 31.9

## Input # inhibition at 25 µg/mL lookup, item Cc1ccc(-c2nc3ccccc3c(=O)n2/N=C2\C(=O)Nc3ccccc32)cc1
## Output 41.4

## Input # inhibition at 25 µg/mL lookup, item COc1ccc2c(c1)/C(=N/n1c(-c3ccc(C)cc3)nc3ccccc3c1=O)C(=O)N2
## Output 82.8

====

Below, each entry is listed with its recorded inhibition at 25 µg/mL.
assay: Cytotoxicity against human HuH7 cells assessed as inhibition of cell survival at 25 ug/ml after 24 hrs by MTT assay; format: functional; conditions: Huh-7, 24 h
Answer in %, number only, no unit symbol.

Previously resolved entries follow.
compound_smiles=O=C1Nc2ccccc2/C1=N/NC(=O)c1ccccc1NC(=O)c1ccc([N+](=O)[O-])cc1 value_observed=48.6
compound_smiles=Cc1ccc(-c2nc3ccccc3c(=O)n2/N=C2\C(=O)Nc3ccc(Cl)cc32)cc1 value_observed=83.3
compound_smiles=Cc1ccc(C(=O)Nc2ccccc2C(=O)N/N=C2\C(=O)Nc3ccc(C)cc32)cc1 value_observed=38

## Input # inhibition at 25 µg/mL lookup, item Cc1ccc(-c2nc3ccccc3c(=O)n2/N=C2\C(=O)Nc3ccccc32)cc1
## Output 2.9

## Input # inhibition at 25 µg/mL lookup, item O=C1Nc2ccc([N+](=O)[O-])cc2/C1=N/NC(=O)c1ccccc1NC(=O)c1ccc([N+](=O)[O-])cc1
## Output 8.2

## Input # inhibition at 25 µg/mL lookup, item Cc1ccc2c(c1)/C(=N/NC(=O)c1ccccc1NC(=O)c1ccc([N+](=O)[O-])cc1)C(=O)N2
## Output 55.8

## Input # inhibition at 25 µg/mL lookup, item COc1ccc2c(c1)/C(=N/n1c(-c3cccs3)nc3ccccc3c1=O)C(=O)N2
## Output 62.7

## Input # inhibition at 25 µg/mL lookup, item COc1ccc2c(c1)/C(=N/NC(=O)c1ccccc1NC(=O)c1ccc([N+](=O)[O-])cc1)C(=O)N2
## Output 33.2

## Input # inhibition at 25 µg/mL lookup, item Cc1ccc(C(=O)Nc2ccccc2C(=O)N/N=C2\C(=O)Nc3ccc(Cl)cc32)cc1
## Output 84.1

## Input # inhibition at 25 µg/mL lookup, item O=C1Nc2ccc([N+](=O)[O-])cc2/C1=N/n1c(-c2cccs2)nc2ccccc2c1=O
## Output 0

## Input # inhibition at 25 µg/mL lookup, item Cc1ccc(C(=O)Nc2ccccc2C(=O)N/N=C2\C(=O)Nc3ccc([N+](=O)[O-])cc32)cc1
## Output 55.2

## Input # inhibition at 25 µg/mL lookup, item O=C1Nc2ccc(Cl)cc2/C1=N/n1c(-c2cccs2)nc2ccccc2c1=O
## Output 0

## Input # inhibition at 25 µg/mL lookup, item COc1ccc2c(c1)/C(=N/NC(=O)c1ccccc1NC(=O)c1ccc(C)cc1)C(=O)N2
## Output 81.6

## Input # inhibition at 25 µg/mL lookup, item O=C1Nc2ccc(Cl)cc2/C1=N/NC(=O)c1ccccc1NC(=O)c1ccc([N+](=O)[O-])cc1
## Output 43.1

====

test system: Daoy; test: Cytotoxicity against human DaOY cells assessed as inhibition of cell survival at 25 ug/ml after 24 hrs by MTT assay; type: functional
Label class 1 for high-side inhibition at 25 µg/mL (at or above 60%) and class 0 for low-side inhibition at 25 µg/mL (below it).

// known answers, use as guide
compound_smiles=O=C1Nc2ccc(Cl)cc2/C1=N/NC(=O)c1ccccc1NC(=O)c1ccc([N+](=O)[O-])cc1 discrete_label="class 0"
compound_smiles=O=C1Nc2ccc([N+](=O)[O-])cc2/C1=N/n1c(-c2cccs2)nc2ccccc2c1=O discrete_label="class 0"
compound_smiles=Cc1ccc(C(=O)Nc2ccccc2C(=O)N/N=C2\C(=O)Nc3ccc(Cl)cc32)cc1 discrete_label="class 1"
compound_smiles=Cc1ccc(C(=O)Nc2ccccc2C(=O)N/N=C2\C(=O)Nc3ccccc32)cc1 discrete_label="class 1"

## Input Test whether the molecule O=C1Nc2ccccc2/C1=N/NC(=O)c1ccccc1NC(=O)c1ccc([N+](=O)[O-])cc1 records inhibition at 25 µg/mL of 60% or higher.
## Output class 1

## Input Test whether the molecule Cc1ccc(-c2nc3ccccc3c(=O)n2/N=C2\C(=O)Nc3ccc(Cl)cc32)cc1 records inhibition at 25 µg/mL of 60% or higher.
## Output class 1

## Input Test whether the molecule O=C1Nc2ccccc2/C1=N/n1c(-c2cccs2)nc2ccccc2c1=O records inhibition at 25 µg/mL of 60% or higher.
## Output class 1

====

system: HeLa; experiment: Cytotoxicity against human HeLa cells assessed as inhibition of cell survival at 25 ug/ml after 24 hrs by MTT assay; assay type: functional
Below, each entry is listed with its recorded inhibition at 25 µg/mL.
Answer in %, number only, no unit symbol.

Previously resolved entries follow.
compound_smiles=O=C1Nc2ccccc2/C1=N/n1c(-c2cccs2)nc2ccccc2c1=O assay_system=HeLa value_observed=36.2
compound_smiles=O=C1Nc2ccc([N+](=O)[O-])cc2/C1=N/NC(=O)c1ccccc1NC(=O)c1ccc([N+](=O)[O-])cc1 assay_system=HeLa value_observed=14.7
compound_smiles=COc1ccc2c(c1)/C(=N/n1c(-c3cccs3)nc3ccccc3c1=O)C(=O)N2 assay_system=HeLa value_observed=67
compound_smiles=O=C1Nc2ccc(Cl)cc2/C1=N/n1c(-c2cccs2)nc2ccccc2c1=O assay_system=HeLa value_observed=69.7
compound_smiles=COc1ccc2c(c1)/C(=N/NC(=O)c1ccccc1NC(=O)c1ccc(C)cc1)C(=O)N2 assay_system=HeLa value_observed=80.3
compound_smiles=Cc1ccc(-c2nc3ccccc3c(=O)n2/N=C2\C(=O)Nc3ccc([N+](=O)[O-])cc32)cc1 assay_system=HeLa value_observed=52.9
compound_smiles=Cc1cc(Br)cc2c1NC(=O)/C2=C1\SC(=S)NC1=O assay_system=HeLa value_observed=57.6
compound_smiles=COc1ccc2c(c1)/C(=N/NC(=O)c1ccccc1NC(=O)c1ccc([N+](=O)[O-])cc1)C(=O)N2 assay_system=HeLa value_observed=16.3

## Input # value lookup — system HeLa, readout inhibition at 25 µg/mL, item Cc1ccc(C(=O)Nc2ccccc2C(=O)N/N=C2\C(=O)Nc3ccc([N+](=O)[O-])cc32)cc1
## Output 26.8

## Input # value lookup — system HeLa, readout inhibition at 25 µg/mL, item O=C1Nc2ccccc2/C1=N/NC(=O)c1ccccc1NC(=O)c1ccc([N+](=O)[O-])cc1
## Output 55

## Input # value lookup — system HeLa, readout inhibition at 25 µg/mL, item Cc1ccc(C(=O)Nc2ccccc2C(=O)N/N=C2\C(=O)Nc3ccc(Cl)cc32)cc1
## Output 86.7

## Input # value lookup — system HeLa, readout inhibition at 25 µg/mL, item Cc1ccc2c(c1)/C(=N/NC(=O)c1ccccc1NC(=O)c1ccc([N+](=O)[O-])cc1)C(=O)N2
## Output 46.1

## Input # value lookup — system HeLa, readout inhibition at 25 µg/mL, item Cc1ccc(-c2nc3ccccc3c(=O)n2/N=C2\C(=O)Nc3ccccc32)cc1
## Output 42.3

## Input # value lookup — system HeLa, readout inhibition at 25 µg/mL, item Cc1ccc(C(=O)Nc2ccccc2C(=O)N/N=C2\C(=O)Nc3ccc(C)cc32)cc1
## Output 46.5

## Input # value lookup — system HeLa, readout inhibition at 25 µg/mL, item Cc1ccc(C(=O)Nc2ccccc2C(=O)N/N=C2\C(=O)Nc3ccccc32)cc1
## Output 30.4

## Input # value lookup — system HeLa, readout inhibition at 25 µg/mL, item O=C1Nc2ccc(Cl)cc2/C1=N/NC(=O)c1ccccc1NC(=O)c1ccc([N+](=O)[O-])cc1
## Output 31

## Input # value lookup — system HeLa, readout inhibition at 25 µg/mL, item Cc1ccc(-c2nc3ccccc3c(=O)n2/N=C2\C(=O)Nc3ccc(C)cc32)cc1
## Output 42.8

## Input # value lookup — system HeLa, readout inhibition at 25 µg/mL, item Cc1ccc(-c2nc3ccccc3c(=O)n2/N=C2\C(=O)Nc3ccc(Cl)cc32)cc1
## Output 80.8
